# target: guinea pig δβγ-ENaC (Cavia porcellus, UniProt H0UT09+H0VJS1+H0VNV9)
# Construct: gene Scnn1d; heterotrimer in Xenopus laevis oocytes; δ with fused exons 11/12
# Sequence (H0VJS1 1-618): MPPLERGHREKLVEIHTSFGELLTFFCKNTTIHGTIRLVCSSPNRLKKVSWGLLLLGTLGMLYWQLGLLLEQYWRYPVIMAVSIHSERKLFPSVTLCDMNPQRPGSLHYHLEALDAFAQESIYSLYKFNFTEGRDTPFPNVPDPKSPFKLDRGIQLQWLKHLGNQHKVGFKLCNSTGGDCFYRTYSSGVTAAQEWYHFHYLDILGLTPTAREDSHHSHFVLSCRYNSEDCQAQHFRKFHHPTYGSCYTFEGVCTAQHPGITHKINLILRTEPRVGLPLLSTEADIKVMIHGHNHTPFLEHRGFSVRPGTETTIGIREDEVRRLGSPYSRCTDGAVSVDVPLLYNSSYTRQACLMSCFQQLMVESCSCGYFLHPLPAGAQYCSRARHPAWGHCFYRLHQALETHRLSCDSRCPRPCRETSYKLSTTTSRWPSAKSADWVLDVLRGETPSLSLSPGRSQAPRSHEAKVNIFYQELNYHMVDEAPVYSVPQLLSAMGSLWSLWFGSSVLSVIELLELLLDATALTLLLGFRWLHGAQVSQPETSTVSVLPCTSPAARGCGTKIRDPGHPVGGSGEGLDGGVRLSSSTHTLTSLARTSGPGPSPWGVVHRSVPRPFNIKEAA
# Sequence (H0VNV9 1-640): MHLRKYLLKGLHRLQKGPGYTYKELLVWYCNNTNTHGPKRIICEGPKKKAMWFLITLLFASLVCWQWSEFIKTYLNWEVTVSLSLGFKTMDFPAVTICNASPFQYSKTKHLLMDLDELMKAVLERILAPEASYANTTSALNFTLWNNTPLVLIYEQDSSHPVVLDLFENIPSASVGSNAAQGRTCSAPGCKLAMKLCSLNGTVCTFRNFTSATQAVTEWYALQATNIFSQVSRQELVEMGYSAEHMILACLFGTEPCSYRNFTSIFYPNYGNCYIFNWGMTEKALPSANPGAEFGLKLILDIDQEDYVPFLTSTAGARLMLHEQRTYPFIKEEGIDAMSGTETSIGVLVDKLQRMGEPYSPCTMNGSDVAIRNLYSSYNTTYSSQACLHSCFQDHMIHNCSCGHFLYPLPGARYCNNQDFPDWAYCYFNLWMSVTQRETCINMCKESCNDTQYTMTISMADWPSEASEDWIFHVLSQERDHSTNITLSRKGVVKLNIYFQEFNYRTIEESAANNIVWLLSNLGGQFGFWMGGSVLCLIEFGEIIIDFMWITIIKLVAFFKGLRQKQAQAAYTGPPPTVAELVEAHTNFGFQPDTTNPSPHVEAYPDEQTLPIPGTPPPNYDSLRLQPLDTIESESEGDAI
# Sequence (H0UT09 1-653): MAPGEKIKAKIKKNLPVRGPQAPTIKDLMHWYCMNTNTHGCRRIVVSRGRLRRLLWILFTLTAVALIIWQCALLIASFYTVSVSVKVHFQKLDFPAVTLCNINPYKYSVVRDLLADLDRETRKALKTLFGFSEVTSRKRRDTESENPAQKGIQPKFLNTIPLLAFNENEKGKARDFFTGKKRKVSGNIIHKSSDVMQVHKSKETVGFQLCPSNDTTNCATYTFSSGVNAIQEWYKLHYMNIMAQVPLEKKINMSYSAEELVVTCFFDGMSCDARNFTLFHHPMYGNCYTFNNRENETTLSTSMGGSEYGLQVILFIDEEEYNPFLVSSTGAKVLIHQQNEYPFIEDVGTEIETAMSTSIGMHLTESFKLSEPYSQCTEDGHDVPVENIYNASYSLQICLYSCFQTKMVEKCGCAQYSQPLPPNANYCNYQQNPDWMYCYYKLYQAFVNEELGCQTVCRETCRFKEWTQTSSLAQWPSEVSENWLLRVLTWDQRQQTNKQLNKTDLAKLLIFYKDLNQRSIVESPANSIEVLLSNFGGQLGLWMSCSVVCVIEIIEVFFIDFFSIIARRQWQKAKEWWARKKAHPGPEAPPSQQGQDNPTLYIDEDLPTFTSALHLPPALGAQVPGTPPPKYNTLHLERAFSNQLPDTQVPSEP
# assay info: two-electrode voltage clamp, Xenopus oocytes, concentration-response
# Assay type: cell-based
# assay context: channel block; -60 mV; ORS 90 mM NaCl, pH 7.4, room temperature
outcome measure: IC50 (µM)
Report the value in µM with no unit label.

Prompt: Given N=C(N)NC(=O)c1nc(Cl)c(N)nc1N [amiloride] , state its recorded IC50.
Response: 0.24
